experiment: Cytotoxicity against non-stimulated mouse B16F10 cells assessed as cell viability at 10 uM relative to control; type: cell-based, B16-F10; settings: read-out: Activity
assay.metric: viability at 10 µM (%)
Please give a number only; it is taken to be in %.

// lookup viability at 10 µM for OC[C@H]1O[C@@H](Oc2ccc(O)cc2)[C@H](O)[C@@H](O)[C@@H]1O 102
